- Test system: SK-MEL-5 melanoma
- Assay: NCI tumour cell line growth inhibition, 48 h; in the data active means GI50 below about 0.43 µM; inactive means the rest
Choose one outcome from this list and give only that: 1 (active), 0 (inactive)

Worked examples follow.
COc1cnc2c(c1)C(=O)c1c-2n(CCCNC2=NCCS2)c(=O)c2cc(F)ccc12	1
COc1cc(-c2cc(/C=C/C(=O)c3ccc(F)c(F)c3)[nH]n2)cc(OC)c1OC	0
CN=C(N)c1ccc(N=C(N)c2ccc(-c3ccc(C(N)=Nc4ccc(C(N)=NC)cc4)cc3)cc2)cc1	0
COc1ccc(-c2cc(-c3ccc(Nc4nc(Nc5ccccc5)nc(Nc5ccc(Cl)cc5)n4)cc3)nc(N)n2)cc1	0
COc1cc2cc(Oc3ccc(NC(=O)Nc4cc(C(F)(F)F)cc(C(F)(F)F)c4)cc3)c(C)nc2cc1OCCN1CCOCC1	0
C=C1C(=O)O[C@H]2[C@H]1CC/C(COC(=O)c1cc(OC)c(OC)c(OC)c1)=C\CC[C@@]1(C)O[C@@H]21	0
c1cc(N[C@@H]2CCNC2)nc(-c2cnc3ccc(-c4cn[nH]c4)cn23)c1	0
CCOC(=O)[C@@H](C)C[C@H](Cc1ccccc1)NC(=O)c1csc([C@@H](C[C@H](C(C)C)N(C)C(=O)[C@@H](NC(=O)[C@H]2CCCCN2C)C(C)(C)CC)OC(C)=O)n1	1

Just curious, what result did `CC(=O)Nc1ccc(C(=O)CCl)cc1` get here?
0

Kindly provide the recorded test outcome for the following compound: `CCN1CCN(c2nc(C)cc(N(CCCNc3ccnc4cc(Cl)ccc34)Cc3ccc4c(c3)OCO4)n2)CC1`
0

Which result was noted for this compound in the test: `NC(=O)c1ccc2c(c1)-c1nc-2nc2[n-]c(nc3nc(nc4[n-]c(n1)c1ccc(C(N)=O)cc41)-c1ccc(C(N)=O)cc1-3)c1ccc(C(N)=O)cc21.[Co+2]`
0

---

Exercise: state measured TGI for each of the molecules provided.
- System: M19-MEL melanoma
- Assay: NCI tumour cell line growth inhibition, 48 h

S=c1sc2c(s1)SC(c1ccccc1)CS2 (centres undefined)	> 100 µM
Cc1ccc(NC(=O)CCc2nc(=S)[nH][nH]2)cc1	> 100 µM
CC(C)(C)c1cc(CCC(=O)Nc2ccc(Cl)cc2)[nH]c(=S)n1	> 100 µM
Cc1nc(N)nc(N)c1CCCCc1ccc(N)cc1	25.5 µM
O=NN1C(c2ccccc2)CNC(=O)CC1c1ccccc1 (centres undefined)	> 100 µM
CCCNC(=O)Nc1c([N+](=O)[O-])cc(C(F)(F)F)cc1[N+](=O)[O-]	69.1 µM
COc1ccc2[nH]c3c(c2c1)[C@H](c1ccccc1)C[C@@H]1C(=O)N(c2ccccc2)C(=O)[C@H]31	> 100 µM
CCCCC1=CSC(c2ccccc2)=C(c2ccccc2)S1	> 100 µM
CCOc1ccccc1N=Nc1ccc2oc(=O)c(C(C)=O)cc2c1	> 100 µM
CCCCCCCC/C=C1\CCC(CN(C)C)C1=O (centres undefined)	10.5 µM

Can you give me TGI for all of these, one by one?
1. N#C/C(=C\c1ccncc1)c1csc2ccccc12
2. Nc1nc2c(N)cc(C(F)(F)F)cc2nc1-c1ccccc1
3. O=C1c2ccccc2C(=O)c2cc3c(cc21)CS(=O)C3
4. CC(C)(C)N=CN1C=Cc2nc3ccccc3cc2C1

1. > 91.2 µM
2. > 100 µM
3. > 100 µM
4. > 100 µM

---

- Test system: T-47D breast
- Assay: NCI tumour cell line growth inhibition, 48 h
Endpoint label: GI50

CC(=O)Nc1ccc(C(=O)CCl)cc1	2680 nM
COc1cc2oc(-c3cccc(C(=O)Nc4ccc(Cl)cc4)c3)cc(=O)c2c(OC)c1OC	1680 nM

Now turn to the next molecule.
// GI50 value for `CCOCC1(COCC)CCC(c2[nH]ncc2CN(C)CCNC)CC1` : > 100000 nM

---

I'd be grateful if you could share measured TGI for these entries.
- System: SK-MEL-28 melanoma
- Assay: NCI tumour cell line growth inhibition, 48 h

Some solved entries appear below for comparison.
CSc1nc(=S)[nH]c2c1c(C)nn2-c1ccccc1	> 100 µM
NC1NC=NC2C1N=CN2C1OC(CO)C2[O][Sn][O]C21 (stereo not given)	> 100 µM
c1ccc(-c2oc(-c3ccccc3)c(CN3CCCCC3)c2CN2CCCCC2)cc1	3.02 µM
CN(C)c1ccc(/C=C/C(=O)c2ccc(O)cc2)cc1	> 100 µM
CC1(C)OC(=O)C(C)(C)C(=O)O1	> 100 µM

Hi, could you look up TGI for each item in my list?
1. COc1ccc(C(O)/C(=N/N)c2nc3ccc(Cl)cc3[nH]c2=O)cc1 (stereo not given)
2. CCS(=O)C(=O)N(O)c1ccc(Cl)cc1 (stereo not given)
3. C#Cc1cccc(Nc2ncnc3cc(NC(=O)CCl)ccc23)c1
4. COc1ccc(-n2c(CCC(=O)O)nc3c2C(=O)c2ccccc2C3=O)cc1
5. CC(C)(C)c1cc(CCC(=O)Nc2ccc(Cl)cc2)[nH]c(=S)n1

1: > 100 µM; 2: 35.6 µM; 3: 7.34 µM; 4: > 100 µM; 5: > 100 µM

---

- System: SF-539 CNS
- Assay: NCI tumour cell line growth inhibition, 48 h
Exercise: for every item that follows, state its recorded TGI.

CC1=C(c2nc3ccccc3s2)C(=O)OC1(C)C	> 100 µM
N#CC(NNC(=O)Cc1ccccc1)c1cccc(O)c1 (stereo not drawn)	> 100 µM
Clc1ccc(Cl)c(N=Nc2cc3c4c(c2)CCN4CCC3)c1	> 10 µM
COc1ccc(C2c3cc4c(cc3OC(NNc3ccccc3)C2C)OCO4)cc1 (stereo not drawn)	6.55 µM
COc1cc2ccc3c4ccccc4cnc3c2cc1OC	> 100 µM
CCCNC(=O)Nc1c([N+](=O)[O-])cc(C(F)(F)F)cc1[N+](=O)[O-]	> 100 µM
c1ccc(-c2oc(-c3ccccc3)c(CN3CCCCC3)c2CN2CCCCC2)cc1	3.47 µM

Please find the next molecule below.
The reported TGI of the molecule `Nc1ccc2n[se]nc2c1` was > 100 µM

---

- System: MOLT-4 leukemia
- Assay: NCI tumour cell line growth inhibition, 48 h
Where a SMILES comes first, the peptide text is derived from it. The star is where a group is joined. Trt = c1ccc(C(c2ccccc2)(c2ccccc2)*)cc1; Cbz = O=C(OCc1ccccc1)*
Endpoint label: TGI

O=C1NC(=S)S/C1=C\c1cn(-c2ccccc2)nc1-c1ccccc1	> 100 µM
N#CCCn1[nH]c(=O)c(Cl)c(Cl)c1=O	37.4 µM
C/C(=C/C(=O)Nc1ccccc1)Nc1onc(C)c1C	> 100 µM

// batch mode: one TGI value per listed entry
1. O=C1OC(c2ccccc2)=NC1c1ccccc1 (centres undefined)
2. O=C1Oc2ccccc2C1C/C(=N\Nc1ccccc1)c1ccccc1O (centres undefined)
3. O=C1CN(c2ccccc2)Cc2nc(Cl)ccc2N1
4. O=S1(=O)N2CN3CN(C2)CN1C3
5. O=S(O)CCCCCSSc1ccccc1
6. NC(N)=N/N=C/c1c(-c2ccsc2)nc2n1CCS2
7. CCOC(=O)C(NC(=O)OCc1ccccc1)C(=O)O (centres undefined)
8. Cc1nc(N)nc(N)c1CCCCc1ccc(N)cc1

1. > 100 µM
2. 78.7 µM
3. > 100 µM
4. 864 µM
5. 34.2 µM
6. 42.9 µM
7. > 100 µM
8. 35.2 µM

For each of the compounds below, note its TGI.
1. COc1ccc2c(c1)OC(N)=C(C#N)C2c1cc(OC)c(OC)c(OC)c1 (centres undefined)
2. COC(=O)C(CO)NC(=O)C(CSC(c1ccccc1)(c1ccccc1)c1ccccc1)NC(=O)OCc1ccccc1 (centres undefined) (Cbz-Cys(Trt)-Ser-OMe; configuration not given here)
3. CN(C)c1ccc(/C=C/C(=O)c2ccc(O)cc2)cc1
4. O=C1N/C(=N\N=C\c2ccccc2)C(c2ccccc2)O1 (centres undefined)
5. COc1cnc2c(c1)C(=O)c1c-2n(CCCNC2=NCCS2)c(=O)c2cc(F)ccc12
6. COc1nc(N=P(c2ccccc2)(c2ccccc2)c2ccccc2)cc(=O)n1C
7. CC(C)(O)/C1=C/C=C/CCCCCCCCCC1
8. N#CC(NNC(=O)Cc1ccccc1)c1cccc(O)c1 (centres undefined)

> 100 µM
> 32.1 µM
21 µM
> 100 µM
0.514 µM
> 100 µM
> 100 µM
> 100 µM

Give TGI for each of the items listed below.
1. Nc1nnc2c(-c3ccccc3)[nH]nc2n1
2. O=C1NC2NC3NC(=O)NC3NC2N1 (centres undefined)
3. CCOc1ccccc1N=Nc1ccc2oc(=O)c(C(C)=O)cc2c1
4. CO/C(N)=C(\C#N)N=Cc1ccc2ccccc2c1
5. O=C(O)c1nc2ccccc2nc1Nc1ccc(Cl)c(Cl)c1
6. CN(C)c1ccc(/C=C\c2ccnc3ccccc23)cc1

1: > 100 µM; 2: > 100 µM; 3: > 100 µM; 4: > 100 µM; 5: > 100 µM; 6: > 100 µM
